# procedure-details: Particle size by Helos/Rodos laser diffraction (Example 1)
# Format: physicochemical
# study-conditions: geometric projection-equivalent volume mean diameter
assay-readout: VMD (μm) (laser diffraction)

Recorded VMD (μm) (laser diffraction), per entry:
>>> print(df.to_string())
                                   compound  recorded_number
0  CC(C)(C)NCC(O)c1cc(O)cc(O)c1 (stereo not shown) [TSB Micronised, terbutaline sulphate, reference compound]             3.04
1  CC(C)(C)NCC(O)c1cc(O)cc(O)c1 (stereo not shown) [TSB SEDS, terbutaline sulphate]             3.43

I. OCc1cc(C(O)CNCCCCCCOCCCCc2ccccc2)ccc1O (stereo not shown) [SX SEDS, salmeterol xinafoate]
II. OCc1cc(C(O)CNCCCCCCOCCCCc2ccccc2)ccc1O (stereo not shown) [SX Micronised, salmeterol xinafoate, reference compound]
[ask] Parameter metric = VMD (μm) (laser diffraction). Return the lower-valued option from I and II . Write the label of whichever entry you select.
[reply] II
(II: 1.69 μm, I: 3.56 μm)

* * *

# procedure-details: Inverse gas chromatography surface energy (Example 1)
# Format: physicochemical
# study-conditions: 303K
assay-readout: γs^D (mJ/m^2)

Recorded γs^D (mJ/m^2), per entry:
>>> print(df.to_string())
                                   compound  assay_readout  recorded_number
0  CC(C)(C)NCC(O)c1cc(O)cc(O)c1 (stereo not shown) [TSB SEDS, terbutaline sulphate]  γs^D (mJ/m^2)            55.05
1  OCc1cc(C(O)CNCCCCCCOCCCCc2ccccc2)ccc1O (stereo not shown) [SX SEDS, salmeterol xinafoate]  γs^D (mJ/m^2)            34.55

I. OCc1cc(C(O)CNCCCCCCOCCCCc2ccccc2)ccc1O (stereo not shown) [SX Micronised, salmeterol xinafoate, reference compound]
II. CC(C)(C)NCC(O)c1cc(O)cc(O)c1 (stereo not shown) [TSB Micronised, terbutaline sulphate, reference compound]
[ask] Given the listed records, identify the one among I and II with higher γs^D (mJ/m^2). Write the label of whichever entry you select.
[reply] II

* * *

# procedure-details: Particle size by AeroSizer time-of-flight (Example 1)
# Type: physicochemical
# study-conditions: aerodynamic-equivalent volume mean diameter
Structures can show the parent of a compound that is named as a salt.
assay-readout: VMD (μm) (Time of flight)

Recorded VMD (μm) (Time of flight), per entry:
>>> df
                                   compound  unit_symbol  recorded_number
0  OCc1cc(C(O)CNCCCCCCOCCCCc2ccccc2)ccc1O (stereo not drawn) [SX Micronised, salmeterol xinafoate, reference compound]           μm              1.2
1  CC(C)(C)NCC(O)c1cc(O)cc(O)c1 (stereo not drawn) [TSB Micronised, terbutaline sulphate, reference compound]           μm              2.7
2  CC(Cc1ccc(O)cc1)NCC(O)c1cc(O)cc(O)c1 (stereo not drawn) [FHBr Micronised, fenoterol hydrobromide, reference compound]           μm              1.7
3  CC(Cc1ccc(O)cc1)NCC(O)c1cc(O)cc(O)c1 (stereo not drawn) [FHBr SEDS, fenoterol hydrobromide]           μm              1.7

a. OCc1cc(C(O)CNCCCCCCOCCCCc2ccccc2)ccc1O (stereo not drawn) [SX SEDS, salmeterol xinafoate]
b. CC(C)(C)NCC(O)c1cc(O)cc(O)c1 (stereo not drawn) [TSB SEDS, terbutaline sulphate]
[ask] Given the listed records, identify the one among a and b with higher VMD (μm) (Time of flight). Write the label of whichever entry you select.
[reply] b

* * *

# procedure-details: Inverse gas chromatography surface energy (Example 1)
# Type: physicochemical
# study-conditions: probe acetone, 303K
Where a name gives a salt, the structure may show the parent alone.
assay-readout: ΔGA (kJ/mol) Acetone

                                   molecule         assay_readout  unit_symbol  recorded_number
0  OCc1cc(C(O)CNCCCCCCOCCCCc2ccccc2)ccc1O (stereo not shown) [SX Micronised, salmeterol xinafoate, reference compound]  ΔGA (kJ/mol) Acetone       kJ/mol            15.24
1  CC(C)(C)NCC(O)c1cc(O)cc(O)c1 (stereo not shown) [TSB SEDS, terbutaline sulphate]  ΔGA (kJ/mol) Acetone       kJ/mol            10.42
2  CC(Cc1ccc(O)cc1)NCC(O)c1cc(O)cc(O)c1 (stereo not shown) [FHBr SEDS, fenoterol hydrobromide]  ΔGA (kJ/mol) Acetone       kJ/mol            13.15
3  CC(C)(C)NCC(O)c1cc(O)cc(O)c1 (stereo not shown) [TSB Micronised, terbutaline sulphate, reference compound]  ΔGA (kJ/mol) Acetone       kJ/mol            12.57

* * *

# procedure-details: Laser diffraction HELOS/RODOS of TBS (Example 8)
# Type: physicochemical
# study-conditions: 2 bar
Where a name gives a salt, the structure may show the parent alone.
assay-readout: Sympatec D4, 3 (μm)

In [3]: df
Out[3]:
                                   molecule  unit_symbol  recorded_number
0  CC(C)(C)NCC(O)c1cc(O)cc(O)c1 (stereo not shown) [TBS 5, terbutaline sulfate]           μm             4.84

I. CC(C)(C)NCC(O)c1cc(O)cc(O)c1 (stereo not shown) [TBS 3, terbutaline sulfate]
II. CC(C)(C)NCC(O)c1cc(O)cc(O)c1 (stereo not shown) [TBS 1, terbutaline sulfate]
III. CC(C)(C)NCC(O)c1cc(O)cc(O)c1 (stereo not shown) [TBS 4, terbutaline sulfate]
[ask] Given 3 molecules, produce a descending ranking by Sympatec D4, 3 (μm). Form field (ranking): labels in requested order.
[reply] III, II, I
(III: 4.75 μm, II: 3.22 μm, I: 1.99 μm)

* * *

# procedure-details: Inverse gas chromatography surface energy (Example 1)
# Format: physicochemical
# study-conditions: probe ethyl acetate, 303K
Counter-ions that a name gives are not always drawn.
assay-readout: ΔGA (kJ/mol) Ethyl acetate

>>> df
                                   compound  unit_symbol  recorded_number
0  CC(Cc1ccc(O)cc1)NCC(O)c1cc(O)cc(O)c1 (stereo not shown) [FHBr SEDS, fenoterol hydrobromide]       kJ/mol            17.48
1  CC(C)(C)NCC(O)c1cc(O)cc(O)c1 (stereo not shown) [TSB Micronised, terbutaline sulphate, reference compound]       kJ/mol            16.01
2  OCc1cc(C(O)CNCCCCCCOCCCCc2ccccc2)ccc1O (stereo not shown) [SX Micronised, salmeterol xinafoate, reference compound]       kJ/mol            17.46
3  CC(C)(C)NCC(O)c1cc(O)cc(O)c1 (stereo not shown) [TSB SEDS, terbutaline sulphate]       kJ/mol            13.76
